Catalogue of pKi values
Target: Carbonic anhydrase 9 (Homo sapiens, UniProt Q16790)
Interpret pKi as the negative base-10 log of the concentration measured in mol/L.

// below: answered compounds
{"columns": ["compound_structure_string", "value_kind", "data_value"],
 "data": [
  ["CC(C)Nc1nc(NCc2ccc(S(N)(=O)=O)cc2)nc(NC(C)C)n1", "pKi", 7.80],
  ["NS(=O)(=O)c1ccc(Nc2nc(Oc3ccccc3)nc(Oc3ccccc3)n2)cc1", "pKi", 6.60],
  ["CCCNc1nc(NCCC)nc(Nc2ccc(S(N)(=O)=O)cc2)n1", "pKi", 7.25]
]}

Now turn to the next compound.
Lookup result for NS(=O)(=O)c1ccc(CCNc2nc(Cl)nc(NCC(=O)O)n2)cc1 ; measured pKi: 9.00
